molecular target: human CD33 Q83A (human, UniProt P20138 18-364); assay: alanine scan, flow cytometry;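 note: HEK293-T cells transiently expressing single-residue alanine mutants of CD33 (alanine swapped to serine), antibody binding read by fluorescence in duplicate, background-subtracted, expressed relative to wild-type CD33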
Sequence (P20138 18-364 Q83A limits assumed): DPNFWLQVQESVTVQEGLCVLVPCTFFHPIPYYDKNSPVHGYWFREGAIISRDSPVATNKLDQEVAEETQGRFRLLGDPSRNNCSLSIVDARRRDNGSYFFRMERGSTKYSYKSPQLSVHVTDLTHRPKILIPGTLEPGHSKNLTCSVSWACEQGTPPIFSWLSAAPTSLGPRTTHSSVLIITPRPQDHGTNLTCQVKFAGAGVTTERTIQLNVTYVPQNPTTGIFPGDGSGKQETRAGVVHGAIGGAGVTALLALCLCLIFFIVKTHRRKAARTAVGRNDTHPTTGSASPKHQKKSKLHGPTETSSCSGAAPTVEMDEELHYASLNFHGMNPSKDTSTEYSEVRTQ

binder	Mean % WT Binding, % WT
Refmab #4 (antibody, V domains shown, Full-length format is human IgG1 Fc silent (PG-LALA); The alanine scan used IgG or Fab) VH: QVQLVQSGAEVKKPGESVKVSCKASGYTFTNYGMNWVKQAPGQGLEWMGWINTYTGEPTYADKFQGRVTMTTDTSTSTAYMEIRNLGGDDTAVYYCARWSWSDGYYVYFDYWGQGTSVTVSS VL: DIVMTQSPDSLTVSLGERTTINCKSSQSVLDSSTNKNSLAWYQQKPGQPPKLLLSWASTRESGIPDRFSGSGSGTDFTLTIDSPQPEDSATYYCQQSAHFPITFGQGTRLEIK	104
Refmab #2 (antibody, V domains shown, Full-length format is human IgG1 Fc silent (PG-LALA); The alanine scan used IgG or Fab) VH: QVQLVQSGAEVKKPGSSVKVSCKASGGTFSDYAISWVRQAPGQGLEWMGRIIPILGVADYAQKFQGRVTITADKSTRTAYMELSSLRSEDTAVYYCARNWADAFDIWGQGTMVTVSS VL: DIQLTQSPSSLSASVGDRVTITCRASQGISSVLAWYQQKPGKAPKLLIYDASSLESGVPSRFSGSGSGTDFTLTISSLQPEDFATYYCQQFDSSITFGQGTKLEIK	107
Refmab #1 (antibody, V domains shown, Full-length format is human IgG1 (Absolute Antibody Ab00283-10.0); The alanine scan used IgG or Fab; also called hP67.6) VH: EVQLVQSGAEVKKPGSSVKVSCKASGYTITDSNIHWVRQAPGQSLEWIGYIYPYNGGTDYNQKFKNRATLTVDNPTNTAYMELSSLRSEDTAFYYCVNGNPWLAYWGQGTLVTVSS VL: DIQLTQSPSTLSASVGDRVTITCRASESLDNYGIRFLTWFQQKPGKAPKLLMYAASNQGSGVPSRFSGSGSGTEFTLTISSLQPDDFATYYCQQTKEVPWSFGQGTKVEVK	87.1
Refmab #3 (antibody, V domains shown, Full-length format is human IgG1 Fc silent (PG-LALA); The alanine scan used IgG or Fab) VH: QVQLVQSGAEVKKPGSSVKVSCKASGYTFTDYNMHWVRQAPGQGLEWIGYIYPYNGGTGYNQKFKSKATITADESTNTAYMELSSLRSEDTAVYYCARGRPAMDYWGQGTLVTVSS VL: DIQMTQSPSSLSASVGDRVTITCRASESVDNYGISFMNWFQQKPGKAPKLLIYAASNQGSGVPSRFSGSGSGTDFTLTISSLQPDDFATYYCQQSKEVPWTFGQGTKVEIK	103
